# test_summary: Cytotoxicity against Homo sapiens (human) non-small cell lung cancer cells after 48 hr by SRB assay
# Type: functional
# condition_context: Cancer cell lines
measure_name: GI50 (µM)
Enter your answer as a number in µM; do not include the unit.

Use the examples below as a reference point.
compound	quantitative_readout
O=C(c1ccccc1)n1c(-c2ccccc2)cs/c1=N\S(=O)(=O)c1ccc(N2N=C3c4ccccc4CC3C2c2cccs2)cc1 (centres undefined)	43.7
O=C(Nc1ccccc1)NS(=O)(=O)c1ccc(-n2nc3c(c2-c2cccs2)Cc2ccccc2-3)cc1	18.2
O=S(=O)(NC(=S)Nc1ccccc1)c1ccc(N2N=C3c4ccccc4CC3C2c2cccs2)cc1 (centres undefined)	30.5

Now consider a different compound.
Can you look up the measured GI50 of O=C1CS/C(=N\S(=O)(=O)c2ccc(N3N=C4c5ccccc5CC4C3c3cccs3)cc2)N1C(=O)c1ccccc1 (centres undefined) for me?
49.3

* * *

Items are presented alongside their recorded GI50.
# Test system: UACC-257
# test_summary: Cytotoxicity against Homo sapiens (human) UACC257 cells after 48 hr by SRB assay
# Type: functional
# condition_context: UACC-257, 48 h
# unit: µM | format: bare number

compound	measure_name	quantitative_readout
O=S(=O)(NC(=S)Nc1ccccc1)c1ccc(N2N=C3c4ccccc4CC3C2c2cccs2)cc1 (stereo not drawn)	GI50	29.1
NS(=O)(=O)c1ccc(-n2nc3c(c2-c2cccs2)Cc2ccccc2-3)cc1	GI50	23.2
O=C1CCS/C(=N\S(=O)(=O)c2ccc(N3N=C4c5ccccc5CC4C3c3cccs3)cc2)N1c1ccccc1 (stereo not drawn)	GI50	24.2
O=C(Nc1ccccc1)NS(=O)(=O)c1ccc(-n2nc3c(c2-c2cccs2)Cc2ccccc2-3)cc1	GI50	17.7
O=C(NC(=S)NS(=O)(=O)c1ccc(N2N=C3c4ccccc4CC3C2c2cccs2)cc1)c1ccccc1 (stereo not drawn)	GI50	42.8

Lab note: need GI50 with UACC-257 for entry O=C1CCS/C(=N\S(=O)(=O)c2ccc(N3N=C4c5ccccc5CC4C3c3cccs3)cc2)N1C(=O)c1ccccc1 (stereo not drawn) , please look it up.
0.33

Requested read-out GI50, target or system UACC-257, entry O=C(NC1CCCCC1)NS(=O)(=O)c1ccc(-n2nc3c(c2-c2cccs2)Cc2ccccc2-3)cc1
24.8

Any idea what GI50 came out for O=C(Nc1ccccc1)NS(=O)(=O)c1ccc(N2N=C3c4ccccc4CC3C2c2cccnc2)cc1 (stereo not drawn) on UACC-257?
26.6

Lab request: please report GI50 under test system UACC-257 for NS(=O)(=O)c1ccc(N2N=C3c4ccccc4CC3C2c2cccs2)cc1 (stereo not drawn)
29.7

Please provide the recorded GI50 for O=C(c1ccccc1)n1c(-c2ccccc2)cs/c1=N\S(=O)(=O)c1ccc(N2N=C3c4ccccc4CC3C2c2cccs2)cc1 (stereo not drawn) , tested on UACC-257.
45.7

Under UACC-257: GI50 value of O=C1CS/C(=N\S(=O)(=O)c2ccc(N3N=C4c5ccccc5CC4C3c3cccs3)cc2)N(c2ccccc2)C1 (stereo not drawn) ?
42.3

* * *

# test_summary: Cytotoxicity against Homo sapiens (human) renal cancer cells after 48 hr by SRB assay
# Type: functional
# condition_context: Cancer cell lines
measure_name: GI50 (µM)
Express the result in µM but write the number alone.

compound	unit_label	GI50
O=C1CS/C(=N\S(=O)(=O)c2ccc(N3N=C4c5ccccc5CC4C3c3cccs3)cc2)N(c2ccccc2)C1 (centres undefined)	µM	43.9
O=C1CCS/C(=N\S(=O)(=O)c2ccc(N3N=C4c5ccccc5CC4C3c3cccs3)cc2)N1C(=O)c1ccccc1 (centres undefined)	µM	17.7
O=C(NC1CCCCC1)NS(=O)(=O)c1ccc(-n2nc3c(c2-c2cccs2)Cc2ccccc2-3)cc1	µM	21.3

# context switch: different compound, same GI50
# get_value(readout='GI50', item= O=C(NC(=S)NS(=O)(=O)c1ccc(N2N=C3c4ccccc4CC3C2c2cccs2)cc1)c1ccccc1 (centres undefined) )
45.8

* * *

# test_summary: Cytotoxicity against Homo sapiens (human) colon cancer cells after 48 hr by SRB assay
# Assay type: functional
# condition_context: Cancer cell lines
measure_name: GI50

Quick one: GI50 for O=C(NC1CCCCC1)NS(=O)(=O)c1ccc(-n2nc3c(c2-c2cccs2)Cc2ccccc2-3)cc1 ?
24.2 µM

* * *

# System: OVCAR-3
# test_summary: Cytotoxicity against Homo sapiens (human) OVCAR3 cells after 48 hr by SRB assay
# Type: functional
# condition_context: OVCAR-3, 48 h
Reported GI50 values follow for various compounds

compound	result
O=C(NC1CCCCC1)NS(=O)(=O)c1ccc(-n2nc3c(c2-c2cccs2)Cc2ccccc2-3)cc1	24.5 µM

What value of GI50 has been reported for the following compound? O=C1CCS/C(=N\S(=O)(=O)c2ccc(N3N=C4c5ccccc5CC4C3c3cccs3)cc2)N1C(=O)c1ccccc1 (stereo not drawn)
27.4 µM

Could you tell me which GI50 is on file for O=C1CCS/C(=N\S(=O)(=O)c2ccc(N3N=C4c5ccccc5CC4C3c3cccs3)cc2)N1c1ccccc1 (stereo not drawn) ?
25.9 µM

* * *

# Tested on: TK-10
# test_summary: Cytotoxicity against Homo sapiens (human) TK10 cells after 48 hr by SRB assay
# Assay type: functional
# condition_context: TK-10, 48 h
Binarize GI50 at 20 µM; below is Condition met, at or above is Condition not met.

compound	class_name
O=C1CS/C(=N\S(=O)(=O)c2ccc(N3N=C4c5ccccc5CC4C3c3cccs3)cc2)N1C(=O)c1ccccc1 (stereo not drawn)	Condition not met

Below 20 µM on GI50? Entry O=S(=O)(NC(=S)Nc1ccccc1)c1ccc(N2N=C3c4ccccc4CC3C2c2cccs2)cc1 (stereo not drawn)
Condition met

Is 20 µM strictly greater than the compound's reported GI50? compound: O=C1CCS/C(=N\S(=O)(=O)c2ccc(N3N=C4c5ccccc5CC4C3c3cccs3)cc2)N1c1ccccc1 (stereo not drawn)
Condition not met

Would you kindly verify if GI50 of O=C(Nc1ccccc1)NS(=O)(=O)c1ccc(N2N=C3c4ccccc4CC3C2c2cccnc2)cc1 (stereo not drawn) is strictly less than 20 µM?
Condition met

Please indicate whether the reported GI50 of O=S(=O)(/N=c1\scc(-c2ccccc2)n1-c1ccccc1)c1ccc(N2N=C3c4ccccc4CC3C2c2cccs2)cc1 (stereo not drawn) is strictly below 20 µM.
Condition not met

# strict comparison: is reported GI50 < 20 µM? input = O=C(c1ccccc1)n1c(-c2ccccc2)cs/c1=N\S(=O)(=O)c1ccc(N2N=C3c4ccccc4CC3C2c2cccs2)cc1 (stereo not drawn)
Condition not met

A record lists O=C(NC1CCCCC1)NS(=O)(=O)c1ccc(-n2nc3c(c2-c2cccs2)Cc2ccccc2-3)cc1 . Is its GI50 below 20 µM?
Condition met

Does the reported GI50 of O=C(Nc1ccccc1)NS(=O)(=O)c1ccc(-n2nc3c(c2-c2cccs2)Cc2ccccc2-3)cc1 stay below 20 µM?
Condition met

* * *

# Tested on: MDA-MB-231
# test_summary: Cytotoxicity against Homo sapiens (human) MDA-MB-231 cells after 48 hr by SRB assay
# Format: functional
# condition_context: MDA-MB-231, 48 h
The following molecules are shown together with reported GI50 values.
Use µM as the unit, but write only the number.

Answered cases to consult:
molecule	unit_label	GI50
O=S(=O)(/N=c1\scc(-c2ccccc2)n1-c1ccccc1)c1ccc(N2N=C3c4ccccc4CC3C2c2cccs2)cc1 (centres undefined)	µM	52.1
O=C1CS/C(=N\S(=O)(=O)c2ccc(N3N=C4c5ccccc5CC4C3c3cccs3)cc2)N(c2ccccc2)C1 (centres undefined)	µM	21.4
O=C(c1ccccc1)n1c(-c2ccccc2)cs/c1=N\S(=O)(=O)c1ccc(N2N=C3c4ccccc4CC3C2c2cccs2)cc1 (centres undefined)	µM	41.3

Bench note: what GI50 did O=S(=O)(NC(=S)Nc1ccccc1)c1ccc(N2N=C3c4ccccc4CC3C2c2cccs2)cc1 (centres undefined) show?
24.8

Consider the molecule O=C1CCS/C(=N\S(=O)(=O)c2ccc(N3N=C4c5ccccc5CC4C3c3cccs3)cc2)N1c1ccccc1 (centres undefined) and give its measured GI50.
52.1

Recorded GI50 of O=C(NC1CCCCC1)NS(=O)(=O)c1ccc(-n2nc3c(c2-c2cccs2)Cc2ccccc2-3)cc1 , please.
27.9

Tell me the measured GI50 of O=C(Nc1ccccc1)NS(=O)(=O)c1ccc(-n2nc3c(c2-c2cccs2)Cc2ccccc2-3)cc1 , please.
15.3

Please look up its GI50: NS(=O)(=O)c1ccc(N2N=C3c4ccccc4CC3C2c2cccs2)cc1 (centres undefined)
16.8

Return reported GI50; argument: O=C(Nc1ccccc1)NS(=O)(=O)c1ccc(N2N=C3c4ccccc4CC3C2c2cccnc2)cc1 (centres undefined)
19.8

* * *

Listed here: items and their measured GI50.
# System: RPMI-8226
# test_summary: Cytotoxicity against Homo sapiens (human) RPMI8226 cells after 48 hr by SRB assay
# Format: functional
# condition_context: RPMI-8226, 48 h
Write it as a number; the unit µM goes unstated.

compound	measure_name	quantitative_readout
O=C(c1ccccc1)n1c(-c2ccccc2)cs/c1=N\S(=O)(=O)c1ccc(N2N=C3c4ccccc4CC3C2c2cccs2)cc1 (stereo not given)	GI50	32.3
O=C(Nc1ccccc1)NS(=O)(=O)c1ccc(N2N=C3c4ccccc4CC3C2c2cccnc2)cc1 (stereo not given)	GI50	27.1
O=C(NC(=S)NS(=O)(=O)c1ccc(N2N=C3c4ccccc4CC3C2c2cccs2)cc1)c1ccccc1 (stereo not given)	GI50	29.7
O=C1CCS/C(=N\S(=O)(=O)c2ccc(N3N=C4c5ccccc5CC4C3c3cccs3)cc2)N1c1ccccc1 (stereo not given)	GI50	18.1

--- query ---
Form field: reported GI50 of O=C(NC1CCCCC1)NS(=O)(=O)c1ccc(-n2nc3c(c2-c2cccs2)Cc2ccccc2-3)cc1
10.7

Where do the numbers come from? From ChEMBL document CHEMBL3046832.
